- Test system: HCV genotype 1b
- run_description: HCV 1b replicon luciferase assay
- Type: cell-based
- cond: Hepatitis C virus, Huh-7, 48 h, Table 1; Huh7 HCV 1b replicon, luciferase reporter, 48 hours; read-out: 1b EC50
pEC50: −log10 of the molar value.
Each record here notes measured pEC50.
endpoint: pEC50

>>> test_value("CC(C)CNc1ccc2c(C(=O)NC3CCNCC3)nn(C)c2n1")
5.31
>>> test_value("Cn1nc(-c2cnc(C(=O)NCc3cccs3)s2)c2ccc(N3CCCCCC3)nc21")
6.08
>>> test_value("O=C(NC1CCN(CCN2CCCCC2)CC1)c1nn(CC2CC2)c2nc(N3CCCCCC3)ccc12")
6.26
>>> test_value("Clc1ccc(Cn2nc(CNC3CCNCC3)c3ccc(N4CCCCCC4)nc32)cc1")
5.54
>>> test_value("CCC(CC)Oc1ccc2c(NC(=O)c3ccncc3)nn(C)c2n1")
5.33
>>> test_value("Cn1nc(CN2CCNCC2)c2ccc(N3CCCCCC3)nc21")
5.34
>>> test_value("O=C(NC1CCNCC1)c1nn(-c2ccccc2)c2nc(N3CCCCCC3)ccc12")
5.42
>>> test_value("CCC(CC)Oc1ccc2c(NC(=O)[C@H]3CC[C@@H](N)CC3)nn(C)c2n1")
5.11
>>> test_value("Cn1nc(-c2cnc(C(=O)NC3CCCN(CC(F)F)C3)s2)c2ccc(N3CCCCCCC3)nc21 (stereo not drawn)")
5.96
